Below, each entry is listed with its recorded Kd.
Target: T1, Taq DNA polymerase (Thermus aquaticus, UniProt P19821 1-832)
T1 construct: also called Taq enzyme; Taq DNA enzyme
T1 sequence (P19821 whole entry): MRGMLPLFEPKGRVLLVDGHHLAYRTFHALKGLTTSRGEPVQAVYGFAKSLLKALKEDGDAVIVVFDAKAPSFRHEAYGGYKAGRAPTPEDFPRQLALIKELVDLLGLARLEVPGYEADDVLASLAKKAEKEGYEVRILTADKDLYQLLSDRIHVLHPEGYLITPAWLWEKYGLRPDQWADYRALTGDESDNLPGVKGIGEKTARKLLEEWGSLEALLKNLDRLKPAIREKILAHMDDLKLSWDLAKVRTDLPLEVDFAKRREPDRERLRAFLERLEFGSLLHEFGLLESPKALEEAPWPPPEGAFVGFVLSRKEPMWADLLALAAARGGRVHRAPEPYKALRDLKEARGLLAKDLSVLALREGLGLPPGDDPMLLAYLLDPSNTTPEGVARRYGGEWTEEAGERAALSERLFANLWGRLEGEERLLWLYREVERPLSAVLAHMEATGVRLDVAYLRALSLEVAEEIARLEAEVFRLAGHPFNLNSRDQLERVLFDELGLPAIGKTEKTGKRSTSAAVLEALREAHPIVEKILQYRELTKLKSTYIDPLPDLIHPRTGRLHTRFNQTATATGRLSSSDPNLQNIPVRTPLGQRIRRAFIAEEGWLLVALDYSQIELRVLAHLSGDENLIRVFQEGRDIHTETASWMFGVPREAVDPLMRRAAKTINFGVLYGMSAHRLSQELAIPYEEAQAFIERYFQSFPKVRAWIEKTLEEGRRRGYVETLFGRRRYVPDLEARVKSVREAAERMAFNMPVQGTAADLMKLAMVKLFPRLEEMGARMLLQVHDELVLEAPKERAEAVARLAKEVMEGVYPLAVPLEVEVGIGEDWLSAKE
Test: AMC sensor, antibody immobilised
A number alone suffices; assume pM.

Mutation 1-30 (antibody, V domains shown, Mutation 1 background; CDRs built; CDR-VL3 cell printed VL, read as V/L) VH: QVQLQQPGAELVKPGASVRLSCQTSVNTFSTYYIYWVKQRPGEGLEWIGGINPTSGGPVFNEKFKSKATLTVDTSSSTAYMQLSSLTSVDSAVYYCTRSVLRRGYYFDYWGQGTALTVSS VL: DIQMTQTTSSLSASLGDRVTISCRASQDIQNYVNWYQQKPDGTIKLLIYYTSRLQSGVPSRFSGSGSGTDYSLTIANLEQEDIATYFCQQDDTVPLTFGAGTKVELKR
911

Query: Give Kd for Mutation 1-41 (antibody, V domains shown, Mutation 1 background; CDRs built) VH: QVQLQQPGAELVKPGASVRLSCQTSVDTFTTYYIYWVKQRPGEGLEWIGGVNPTSNPVFNEKFKSKATLTVDTSSSTAYMQLSSLTSVDSAVYYCTRSVIRRGYYFDYWGQGTALTVSS VL: DIQMTQTTSSLSASLGDRVTISCRASQDINNYINWYQQKPDGTIKLLIYYTSRLNSGVPSRFSGSGSGTDYSLTIANLEQEDIATYFCQQDDTVPVTFGAGTKVELKR
Reply: 297
